The reported numbers originate from PubChem BioAssay (NCI).

- System: ACHN renal
- test.description: NCI-60 one-dose screen, 48 h (100 = growth as untreated, 0 = no growth, -100 = all killed)
- condition.notes: 10 µM unless noted
This is part of a sample that, as a whole, favours compounds with a hit. Of some 83,000 tested, about 20% had one in any assay.
parameter.measured: growth (%)
Give the value in % but do not write % after it.

O=c1[nH]c2ccccc2n1C1CCN(CCOc2ccccc2)CC1 ... 90.9
COc1ccc2cc(-c3cc(OC)c(OC)c(OC)c3)c(=O)oc2c1 ... 90.1
N#Cc1c(N)nc2c(C#N)c(NC(=O)c3ccccc3)nn2c1-c1ccccc1 ... 89.6

GET /values?readout=growth&system=ACHN renal&item= Clc1cccc(Cl)c1C(Nc1nc2ccccc2s1)Nc1nc2ccccc2s1 89.3

GET /values?readout=growth&system=ACHN renal&item= COc1cc(C2CC(c3cc(OC)c(OCCCOc4ccc(-n5c(/C=C/c6ccccc6)nc6ccccc6c5=O)cc4)c(OC)c3)=NO2)cc(OC)c1OC (stereo not given) 91.3
